Biological target: T1, human IL-23R endogenously expressed on DB cells (human, UniProt Q5VWK5 24-629)
T1 sequence (looked up): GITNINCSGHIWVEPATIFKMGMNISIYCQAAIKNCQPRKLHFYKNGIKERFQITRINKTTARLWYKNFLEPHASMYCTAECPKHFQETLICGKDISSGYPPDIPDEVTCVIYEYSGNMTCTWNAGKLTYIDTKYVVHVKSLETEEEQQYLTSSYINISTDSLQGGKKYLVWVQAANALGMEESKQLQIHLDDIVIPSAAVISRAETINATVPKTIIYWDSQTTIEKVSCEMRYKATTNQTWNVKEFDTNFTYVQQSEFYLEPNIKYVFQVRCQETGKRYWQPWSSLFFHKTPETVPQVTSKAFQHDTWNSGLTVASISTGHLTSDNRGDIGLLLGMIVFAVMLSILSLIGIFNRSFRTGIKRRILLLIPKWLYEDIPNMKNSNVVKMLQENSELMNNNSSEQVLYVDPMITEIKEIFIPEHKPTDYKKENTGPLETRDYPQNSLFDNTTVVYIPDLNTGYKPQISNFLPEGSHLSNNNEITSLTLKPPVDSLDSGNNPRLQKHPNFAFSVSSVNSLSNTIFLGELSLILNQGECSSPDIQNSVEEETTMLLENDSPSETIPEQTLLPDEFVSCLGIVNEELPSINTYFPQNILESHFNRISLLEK
Assay: cell-based or functional assay
*1 amine or outer side, *2 acyl side, *3 side chain or, on linkers, in order; H or OH if unused. Bridges are numbered along the chain shown (N, C = ends). [ ]: non-standard residue; d: D form. 4‑Aminomethyl‑phenylacetyl = 4-aminomethyl-phenylacetyl unit, its amine closes the lactam, O=C(Cc1ccc(CN[*:1])cc1)[*:2]; αMeAla(3-pyridyl) = C[C@](N)(Cc1cccnc1)C(=O)O; 2Nal = N[C@@H](Cc1ccc2ccccc2c1)C(=O)O; AEF = NCCOc1ccc(C[C@H](N)C(=O)O)cc1; 3Pal = N[C@@H](Cc1cccnc1)C(=O)O; αMeL = CC(C)C[C@](C)(N)C(=O)O; Iso‑Dab = not defined here; Dab = NCC[C@H](N)C(=O)O
testReadout: hIL-23 (pSTAT3) antagonist % inhibition (%)
Answer with a number only, understood to be in %.

Reference set (2 entries):
binder | hIL-23 (pSTAT3) antagonist % inhibition (%)
[4‑Aminomethyl‑phenylacetyl]SEWQ[Dab][AEF][2Nal][αMeL]E[Iso‑Dab][αMeAla(3-pyridyl)]-NH2 (lactam N-10, 3-6; reading uncertain; also: iso-Dab11 joined via side-chain amine) [Compound 15] | 97
[4‑Aminomethyl‑phenylacetyl]SEWQ[Dab][AEF][2Nal][αMeL]E[Dab][3Pal]-NH2 (lactam N-10, 3-6; SMILES CC(C)C[C@]1(C)NC(=O)[C@H](Cc2ccc3ccccc3c2)NC(=O)[C@H](Cc2ccc(OCCN)cc2)NC(=O)[C@@H]2CCNC(=O)CC[C@H](NC(=O)[C@H](CO)NC(=O)Cc3ccc(cc3)CNC(=O)CC[C@@H](C(=O)N[C@@H](CCN)C(=O)N[C@@H](Cc3cccnc3)C(N)=O)NC1=O)C(=O)N[C@@H](Cc1c[nH]c3ccccc13)C(=O)N[C@@H](CCC(N)=O)C(=O)N2) [Ref 122] | 99

We next turn to a different binder, shown below.
So what does the record say about hIL-23 (pSTAT3) antagonist % inhibition for [4‑Aminomethyl‑phenylacetyl]SEWQ[Dab][AEF][2Nal][αMeL]E[Dab][3Pal]-NHMe (lactam N-10, 3-6) [Compound 8] ? 101
